Test: Dissociation constant, acidic pKa of compound
Format: physicochemical

- molecule: "Cc1c(N2CCN(C)CC2)ccc2c3c(c(=O)oc12)CN(C(=O)c1ccc(NS(C)(=O)=O)cc1)CC3"
  pKa: 8.2
- molecule: "Cc1c(N2CCN(C)CC2)ccc2c3c(c(=O)oc12)CN(C(=O)c1ccc2c(c1)CS(=O)(=O)N2)CC3.O=C(O)C(F)(F)F"
  pKa: 5.7
- molecule: "Cc1c(N2CCN(C)CC2)ccc2c3c(c(=O)oc12)CN(C(=O)c1ccc(NS(C)(=O)=O)c(F)c1)CC3"
  pKa: 6.9
- molecule: "COc1cc(C(=O)N2CCc3c(c(=O)oc4c(C)c(N5CCN(C)CC5)ccc34)C2)ccc1NS(C)(=O)=O"
  pKa: 8.4

###

Assay: Dissociation constant, acidic pKa of compound
Assay type: physicochemical
As shown below, each of these compounds has a reported pKa value.

- molecule: "Cc1c(N2CCN(C)CC2)ccc2c3c(c(=O)oc12)CN(C(=O)c1ccc(NS(C)(=O)=O)c(Cl)c1)CC3"
  pKa: 6.8
- molecule: "Cc1c(N2CCN(C)CC2)ccc2c3c(c(=O)oc12)CN(C(=O)c1ccc(NS(C)(=O)=O)c(Br)c1)CC3"
  pKa: 6.8
- molecule: "Cc1c(N2CCN(C)CC2)ccc2c3c(c(=O)oc12)CN(C(=O)c1ccc(NS(C)(=O)=O)c(OC(F)(F)F)c1)CC3"
  pKa: 6.8
- molecule: "Cc1cc(C(=O)N2CCc3c(c(=O)oc4c(C)c(N5CCN(C)CC5)ccc34)C2)ccc1NS(C)(=O)=O"
  pKa: 8.3

###

Experiment: Cmax in BALBc mouse at 100 mg/kg, po measured for 24 hrs by LC-MS/MS analysis
Type: ADME, organism-based
Parameters: dose 100 mg/kg, route oral
Conditions: in vivo
As shown below, each of these molecules has a reported Cmax value.

- molecule: "Cc1c(N2CCN(C)CC2)ccc2c3c(c(=O)oc12)CN(C(=O)c1ccc(NS(C)(=O)=O)c(Cl)c1)CC3"
  Cmax / µg/mL: 37.9
- molecule: "Cc1c(N2CCN(C)[C@@H](C)C2)ccc2c3c(c(=O)oc12)CN(C(=O)c1ccc(NS(C)(=O)=O)c(OC(F)(F)F)c1)CC3"
  Cmax / µg/mL: 90.1

###

Experiment: AUC in BALBc mouse at 100 mg/kg, po measured for 24 hrs by LC-MS/MS analysis
Format: ADME, organism-based
Settings: in vivo
As shown below, each of these compounds has a reported AUC at 24 h value.

- molecule: "Cc1c(N2CCN(C)CC2)ccc2c3c(c(=O)oc12)CN(C(=O)c1ccc(NS(C)(=O)=O)c(Cl)c1)CC3"
  display_unit: "µg·h/mL"
  AUC at 24 h: 306
- molecule: "Cc1c(N2CCN(C)[C@@H](C)C2)ccc2c3c(c(=O)oc12)CN(C(=O)c1ccc(NS(C)(=O)=O)c(OC(F)(F)F)c1)CC3"
  display_unit: "µg·h/mL"
  AUC at 24 h: 726

###

Assay: Effective permeability of compound at pH 7.4 by PAMPA
Format: ADME
Settings: read-out: Peff
readout_label: Papp (×10⁻⁶ cm/s)

- molecule: "COc1cc(C(=O)N2CCc3c(c(=O)oc4c(C)c(N5CCN(C)CC5)ccc34)C2)ccc1NS(C)(=O)=O"
  readout_relation: "="
  quantitative_result: 44.2
- molecule: "Cc1c(N2CCN(C)[C@@H](C)C2)ccc2c3c(c(=O)oc12)CN(C(=O)c1ccc(NS(C)(=O)=O)c(OC(F)(F)F)c1)CC3"
  readout_relation: ">"
  quantitative_result: 50
- molecule: "Cc1cc(C(=O)N2CCc3c(c(=O)oc4c(C)c(N5CCN(C)CC5)ccc34)C2)ccc1NS(C)(=O)=O"
  readout_relation: "="
  quantitative_result: 23.1
- molecule: "Cc1c(N2CCN(C)CC2)ccc2c3c(c(=O)oc12)CN(C(=O)c1ccc(NS(C)(=O)=O)c(Cl)c1)CC3"
  readout_relation: "="
  quantitative_result: 31.1
- molecule: "Cc1c(N2CCN(C)CC2)ccc2c3c(c(=O)oc12)CN(C(=O)c1ccc(NS(C)(=O)=O)c(F)c1)CC3"
  readout_relation: "="
  quantitative_result: 16.9
- molecule: "Cc1c(N2CCN(C)CC2)ccc2c3c(c(=O)oc12)CN(C(=O)c1cc(Cl)cc(NS(C)(=O)=O)c1)CC3"
  readout_relation: "="
  quantitative_result: 6.6
- molecule: "Cc1c(N2CCN(C)CC2)ccc2c3c(c(=O)oc12)CN(C(=O)c1ccc(NS(C)(=O)=O)cc1)CC3"
  readout_relation: "="
  quantitative_result: 5.4
- molecule: "Cc1c(N2CCN(C)CC2)ccc2c3c(c(=O)oc12)CN(C(=O)c1ccc(NS(C)(=O)=O)c(OC(F)(F)F)c1)CC3"
  readout_relation: "="
  quantitative_result: 43.7
- molecule: "Cc1c(N2CCN(C)CC2)ccc2c3c(c(=O)oc12)CN(C(=O)c1ccc2c(c1)CS(=O)(=O)N2)CC3.O=C(O)C(F)(F)F"
  readout_relation: "<"
  quantitative_result: 0.1
- molecule: "Cc1c(N2CCN(C)CC2)ccc2c3c(c(=O)oc12)CN(C(=O)c1ccc(NS(C)(=O)=O)c(Br)c1)CC3"
  readout_relation: ">"
  quantitative_result: 50
